Just for reference, the RNAGym collection of RNA variant scans (doi:10.7554/elife.90254) is where these values come from.

B1: LINE1-mini (parent)
chain: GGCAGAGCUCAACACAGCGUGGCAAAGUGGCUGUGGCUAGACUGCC

# Variants of: B1
# test protocol: self-cleavage, relative activity (ratio to wild type); higher = more cleavage; in vitro, sequencing; the parent is a self-cleaving ribozyme
self-cleavage below 0.1 gives not fulfilled; self-cleavage at or above it gives fulfilled.

| residue change | assigned category |
| --- | --- |
| U28A U38G | not fulfilled |
| U28A U43C | not fulfilled |
| G1U A24U | fulfilled |
| A14C G40U | not fulfilled |
| G7A U38G | not fulfilled |
| A26G C42G | not fulfilled |
| A16U U32C | fulfilled |
| G21U G22A | fulfilled |
| U9C A11C | not fulfilled |
| A6U A41G | fulfilled |
| U9C U43A | not fulfilled |
| G27A C42G | not fulfilled |
| C18G U28C | fulfilled |
| A6C G36A | fulfilled |
| U9G G36U | fulfilled |
| C31A C37U | not fulfilled |
| C15U C31A | not fulfilled |
| C15A A24C | not fulfilled |
| G19C G36C | not fulfilled |
| G17C C42G | not fulfilled |
| U28C U32A | not fulfilled |
| G2A U32A | fulfilled |
| A14U G44C | fulfilled |
| C3A A16U | fulfilled |
| G19C U34A | fulfilled |
| A4G G33U | fulfilled |
| A6G G21U | fulfilled |
| A14G C18A | fulfilled |
| C13U C31U | fulfilled |
| G2A A24G | fulfilled |
| C3U U38G | not fulfilled |
| G30A G44A | fulfilled |
| G2C C18A | not fulfilled |
| G29C U38A | not fulfilled |
| C18U A24U | fulfilled |
| C15A C46U | fulfilled |
| A11G C37G | not fulfilled |
| G7C G19A | fulfilled |
| A41G C42U | fulfilled |
| A25G G35C | not fulfilled |
| C15A A26G | not fulfilled |
| G27C C46A | fulfilled |
| C15U U20C | fulfilled |
| G7U A41U | fulfilled |
| C13G A26C | fulfilled |
